system: OVCAR-3 ovarian; test: NCI tumour cell line growth inhibition, 48 h
readout label: TGI (µM)
Numeric only. Scale: µM

* O=C1Cc2c(-c3ccccc3)cc(-c3cccc(Cl)c3)nc2-c2ccccc2N1 | 6.84
* O=C(Nc1ccc(Br)cc1)c1cc(Br)cc(Br)c1O | 8
* COc1cccc(C2c3cc4c(cc3OC(N3CCOCC3)C2C)OCO4)c1O (stereo not drawn) | 30.8
* Cn1c(N/N=C/c2ccc(Cl)cc2)nc(-c2ccc(Cl)cc2)c(C#N)c1=O | 32.7
* COc1ccc2c(c1)CC[C@@H]1[C@@H]2CC[C@]2(C)/C(=N/OCCN3CCCCC3)CC[C@@H]12 | 15

Lookup: Fill in the blank: the reported TGI of CC(Nc1cc(Cl)cc(Cl)c1)c1ccncc1 (stereo not drawn) is ____.
Found: 35.7

Lookup: Given CCN(CC)CC(C)Nc1ccc(C)c2sc3ccccc3c(=O)c12 (stereo not drawn) , state its recorded TGI.
Found: 19.2

Lookup: Which value of TGI has been reported for `CN(C)Cc1cc(N=Nc2ccc(Cl)c(Cl)c2)ccc1O` in the records?
Found: 19.2

Lookup: What measured TGI goes with CCOC(OC1=C(C#N)CCC1)C(CC)[Se]c1ccccc1 (stereo not drawn) ?
Found: 58.5

Lookup: Fill in the blank: the reported TGI of `CCCCc1cc(O)ccc1O` is ____.
Found: 21.8

Lookup: Look at this compound and give its reported TGI. `NC(N)=N/N=C/c1c(-c2cc(Cl)sc2Cl)nc2n1CCS2`
Found: 17.3

The measured values listed here are drawn from PubChem BioAssay (NCI).
